Measured values drawn from patent US20240174690A1 for this set.

Test system: LOVO cells
measurement description: LOVO CTG proliferation assay (120 h) (CRC, G13D)
Type: cell-based
conditions: Homo sapiens, CTG 120 h
pIC50: −log10 of the molar value.
Returns 1.0 if the recorded pIC50 is greater than or equal to 7, and 0.0 otherwise.

| compound | tgt | class label |
| --- | --- | --- |
| CO[C@H]1CCN(C)[C@@H]1[C@H](C)Oc1cc(-n2ccc(C(=O)N[C@H]3CCOC3)n2)nc(-c2onc3c2CCC[C@@]32CCCc3sc(N)c(C#N)c32)n1 [I-54] | LOVO cells | 1.0 |
| C[C@H](Oc1cc(N2CCN(C)C3(CC3)C2)nc(-c2onc3c2CCC[C@@]32CCCc3sc(N)c(C#N)c32)n1)[C@@H]1CCCN1C [I-41] | LOVO cells | 0.0 |
| C[C@H](Oc1cc(N2CCN(C)CC2)nc(-c2noc3c2CCC[C@@]32CCCc3sc(N)c(C#N)c32)n1)[C@@H]1CCCN1C [II-55] | LOVO cells | 0.0 |
| C[C@H](Oc1cc(-c2cncs2)nc(-c2noc3c2CCC[C@@]32CCCc3sc(N)c(C#N)c32)n1)[C@@H]1CCCN1C [II-80] | LOVO cells | 0.0 |
| C[C@H](Oc1cc(N2CC[C@H](N3CCCC3)C2)nc(-c2noc3c2CCC[C@@]32CCCc3sc(N)c(C#N)c32)n1)[C@@H]1CCCN1C [II-14] | LOVO cells | 0.0 |
| C[C@H](NC(=O)c1ccn(-c2cc(O[C@@H](C)[C@@H]3CCCN3C)nc(-c3noc4c3CCC[C@@]43CCCc4sc(N)c(C#N)c43)n2)n1)c1ccccn1 [II-191] | LOVO cells | 1.0 |
| CO[C@H]1CCN(C)[C@@H]1[C@H](C)Oc1cc(-n2ccc(C(=O)N(C)C3COC3)n2)nc(-c2noc3c2CCC[C@@]32CCCc3sc(N)c(C#N)c32)n1 [II-199] | LOVO cells | 1.0 |
| C[C@H](Oc1cc(N2CCNC3(CCC3)C2)nc(-c2onc3c2CCC[C@@]32CCCc3sc(N)c(C#N)c32)n1)[C@@H]1CCCN1C [I-3] | LOVO cells | 0.0 |
| C[C@H](Oc1cc(N2CCc3cccnc32)nc(-c2noc3c2CCC[C@@]32CCCc3sc(N)c(C#N)c32)n1)[C@@H]1CCCN1C [II-90] | LOVO cells | 0.0 |
| C[C@H](Oc1cc(-n2ccc(C3(O)COC3)n2)nc(-c2noc3c2CCC[C@@]32CCCc3sc(N)c(C#N)c32)n1)[C@@H]1CCCN1C [II-189] | LOVO cells | 1.0 |
| CO[C@@H]1C[C@@H]([C@H](C)Oc2cc(N3CCN(C)C4(CC4)C3)nc(-c3onc4c3CCC[C@@]43CCCc4sc(N)c(C#N)c43)n2)N(C)C1 [I-50] | LOVO cells | 0.0 |
| C[C@H](Oc1cc(-c2ccc(N)nc2)nc(-c2noc3c2CCC[C@@]32CCCc3sc(N)c(C#N)c32)n1)[C@@H]1CCCN1C [II-101] | LOVO cells | 0.0 |
| C[C@H](Oc1cc(C2CCOCC2)nc(-c2noc3c2CCC[C@@]32CCCc3sc(N)c(C#N)c32)n1)[C@@H]1CCCN1C [II-76] | LOVO cells | 1.0 |
| C[C@H](Oc1cc(N2CC[C@H](N(C)C)C2)nc(-c2onc3c2CCC[C@@]32CCCc3sc(N)c(C#N)c32)n1)[C@@H]1CCCN1C [I-11] | LOVO cells | 0.0 |
| C[C@H](Oc1cc(-n2ccnc2)nc(-c2noc3c2CCC[C@@]32CCCc3sc(N)c(C#N)c32)n1)[C@@H]1C[C@@H](F)CN1C [II-120] | LOVO cells | 0.0 |
| C[C@H](Oc1cc(-c2cn[nH]c2)nc(-c2noc3c2CCC[C@@]32CCCc3sc(N)c(C#N)c32)n1)[C@@H]1CCCN1C [II-87] | LOVO cells | 0.0 |
| CC(C)N1CCCN(c2cc(-c3ccn(C)n3)nc(-c3noc4c3CCC[C@@]43CCCc4sc(N)c(C#N)c43)n2)[C@@H](C)C1 [II-170] | LOVO cells | 0.0 |
| C[C@H](Oc1cc(-n2ccc(C(=O)N(C)C3COC3)n2)nc(-c2noc3c2CCC[C@@]32CCCc3sc(N)c(C#N)c32)n1)[C@@H]1CCCN1C [II-194] | LOVO cells | 1.0 |

* * *

Tested on: KRAS G12V-dependent Ba/F3 cells
measurement description: Ba/F3 proliferation assay, KRAS G12V;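 also: proliferation IC50 in KRAS G12V-dependent Ba/F3 cells read by AlamarBlue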
Format: cell-based
conditions: Mus musculus, BaF3, 72 h, AlamarBlue
pIC50: −log10 of the molar value.
readout: pIC50

| compound structure | readout | measurement |
| --- | --- | --- |
| C[C@H](Oc1cc(-c2cnsc2)nc(-c2noc3c2CCC[C@@]32CCCc3sc(N)c(C#N)c32)n1)[C@@H]1CCCN1C | pIC50 | 8.40 |
| CC(C)N1CCCN(c2cc(-n3ccnc3)nc(-c3noc4c3CCC[C@@]43CCCc4sc(N)c(C#N)c43)n2)[C@@H](C)C1 | pIC50 | 7.21 |
| CO[C@@H]1C[C@@H]([C@H](C)Oc2cc(-c3cnn(C)n3)nc(-c3onc4c3CCC[C@@]43CCCc4sc(N)c(C#N)c43)n2)N(C)C1 | pIC50 | 7.64 |
| C[C@H](Oc1cc(-n2ccnc2Cl)nc(-c2noc3c2CCC[C@@]32CCCc3sc(N)c(C#N)c32)n1)[C@@H]1CCCN1C | pIC50 | 7.35 |
| C[C@H](Oc1cc(-c2ccn(C)n2)nc(-c2noc3c2CCC[C@@]32CCCc3sc(N)c(C#N)c32)n1)[C@@H]1C[C@@H](F)CN1C | pIC50 | 7.80 |
| C[C@H](Oc1cc(-n2nccn2)nc(-c2onc3c2CCC[C@@]32CCCc3sc(N)c(C#N)c32)n1)[C@@H]1CCCN1C | pIC50 | 7.82 |
| CO[C@@H]1C[C@@H]([C@H](C)Oc2cc(-c3ccn(C)n3)nc(-c3noc4c3CCC[C@@]43CCCc4sc(N)c(C#N)c43)n2)N(C)C1 | pIC50 | 8.10 |
| CO[C@@H]1C[C@@H]([C@H](C)Oc2cc(-c3ccn(C4COC4)n3)nc(-c3noc4c3CCC[C@@]43CCCc4sc(N)c(C#N)c43)n2)N(C)C1 | pIC50 | 8.10 |
| C[C@H](Oc1cc(-c2cn(C3CCOCC3)nn2)nc(-c2noc3c2CCC[C@@]32CCCc3sc(N)c(C#N)c32)n1)[C@@H]1CCCN1C | pIC50 | 7.47 |
| C[C@H](Oc1cc(N2CCN3CCC[C@]3(C)C2)nc(-c2noc3c2CCC[C@@]32CCCc3sc(N)c(C#N)c32)n1)[C@@H]1CCCN1C | pIC50 | 6.40 |
| C[C@H](Oc1cc(-n2cc3ccn(C[C@H]4CCOC4)c(=O)c3n2)nc(-c2noc3c2CCC[C@@]32CCCc3sc(N)c(C#N)c32)n1)[C@@H]1CCCN1C | pIC50 | 8.15 |
| C[C@H](Oc1cc(N2CCNC[C@]23CCOC3)nc(-c2onc3c2CCC[C@@]32CCCc3sc(N)c(C#N)c32)n1)[C@@H]1CCCN1C | pIC50 | 6.46 |
| C[C@H](Oc1cc(N2CCNCC2)nc(-c2noc3c2CCC[C@@]32CCCc3sc(N)c(C#N)c32)n1)[C@@H]1CCCN1C | pIC50 | 6.19 |

* * *

measurement description: Plasma protein binding assay (PPB), equilibrium dialysis, 10% FCS in PBS
Format: in vitro ADME
conditions: bovine, read-out: PPB 10% FCS (% fu)

| compound structure | fraction unbound |
| --- | --- |
| C[C@H](Oc1cc(N2CC3COCC(C2)N3)nc(-c2noc3c2CCC[C@@]32CCCc3sc(N)c(C#N)c32)n1)[C@@H]1CCCN1C | 0.53 |
| C[C@H](Oc1cc(N2C[C@H](C)NC3(CC3)C2)nc(-c2onc3c2CCC[C@@]32CCCc3sc(N)c(C#N)c32)n1)[C@@H]1CCCN1C | 0.77 |
| C[C@H](Oc1cc(-n2cc3c(n2)CCN(C)C3)nc(-c2noc3c2CCC[C@@]32CCCc3sc(N)c(C#N)c32)n1)[C@@H]1CCCN1C | 0.6 |
| CO[C@H]1CCN(C)[C@@H]1[C@H](C)Oc1cc(-n2ccc(CC(=O)NC(C)C)n2)nc(-c2noc3c2CCC[C@@]32CCCc3sc(N)c(C#N)c32)n1 | 0.04 |
| C[C@H](Oc1cc(-n2cc(Cn3cncn3)nn2)nc(-c2noc3c2CCC[C@@]32CCCc3sc(N)c(C#N)c32)n1)[C@@H]1CCCN1C | 0.4 |
| COCc1cn(-c2cc(O[C@@H](C)[C@@H]3CCCN3C)nc(-c3noc4c3CCC[C@@]43CCCc4sc(N)c(C#N)c43)n2)nn1 | 0.4 |
| CO[C@@H]1C[C@@H]([C@H](C)Oc2cc(N3CCN(C)C4(CC4)C3)nc(-c3noc4c3CCC[C@@]43CCCc4sc(N)c(C#N)c43)n2)N(C)C1 | 0.08 |
| C[C@H](Oc1cc(-c2cnsc2)nc(-c2onc3c2CCC[C@@]32CCCc3sc(N)c(C#N)c32)n1)[C@@H]1CCCN1C | 0.21 |
| C[C@H](Oc1cc(N2CC[C@H](N3CCCCC3)C2)nc(-c2noc3c2CCC[C@@]32CCCc3sc(N)c(C#N)c32)n1)[C@@H]1CCCN1C | 0.2 |
| CO[C@H]1CCN(C)[C@@H]1[C@H](C)Oc1cc(-n2ccc(C(=O)N(C)C3COC3)n2)nc(-c2noc3c2CCC[C@@]32CCCc3sc(N)c(C#N)c32)n1 | 0.07 |
| C[C@H](Oc1cc(-c2ccn(C)n2)nc(-c2noc3c2CCC[C@@]32CCCc3sc(N)c(C#N)c32)n1)[C@@H]1C[C@@H](F)CN1C | 0.05 |
| CC(C)[C@@H]1CN(c2cc(O[C@@H](C)[C@@H]3CCCN3C)nc(-c3noc4c3CCC[C@@]43CCCc4sc(N)c(C#N)c43)n2)CCN1 | 0.22 |
